Hello, the source for this data is patent US9233107B2, in case you need it.

System: SVG-A cells
Assay: Total cell number (DAPI+ events) / cytotoxicity in the JCV infectivity assay
Settings: Homo sapiens, SVG-A, read-out: % Inhibition total Cell Number @10 uM
readout: inhibition at 10 µM (%)
Answers are plain numbers, in %.

Bench note, SVG-A cells: C[C@H]1C[C@H]2[C@@H]3CCC4=CC(=O)C=C[C@]4(C)[C@@]3(F)[C@@H](O)C[C@]2(C)[C@@]1(O)C(=O)CO , inhibition at 10 µM reads 14

Bench note, SVG-A cells: Cc1nccc2c1[nH]c1ccccc12 , inhibition at 10 µM reads 4

Bench note, SVG-A cells: CCCCCCCCCCCCCCCC(=O)OC[C@@H](NC(=O)C(Cl)Cl)[C@H](O)c1ccc([N+](=O)[O-])cc1 [CHLORAMPHENICOL PALMITATE] , inhibition at 10 µM reads -13

Bench note, SVG-A cells: O=c1cc(-c2ccc(O)cc2)oc2ccc(O)cc12 [6,4′-DIHYDROXYFLAVONE] , inhibition at 10 µM reads -5

Bench note, SVG-A cells: Clc1ccc(COC(Cn2ccnc2)c2ccc(Cl)cc2Cl)c(Cl)c1 (stereo not shown) [MICONAZOLE NITRATE] , inhibition at 10 µM reads 7

Bench note, SVG-A cells: COc1cc2c(cc1-c1coc3c4c(c(OC)cc3c1=O)OC(C)(C)C=C4)OCO2 , inhibition at 10 µM reads 14

Bench note, SVG-A cells: COc1ccc2c(c1)c(CC(=O)OCC(=O)O)c(C)n2C(=O)c1ccc(Cl)cc1 , inhibition at 10 µM reads -8

Bench note, SVG-A cells: Cc1cccc(Nc2ccccc2C(=O)O)c1C , inhibition at 10 µM reads 0

I'm hoping you can list inhibition at 10 µM for every molecule here, please.
1. CC1=C(/C=C/C(C)=C/C=C/C(C)=C\C(=O)O)C(C)(C)CCC1
2. CC(=O)O[C@H]1C[C@@]2(C)[C@@H](C[C@@H](O)[C@H]3[C@@]4(C)CC[C@@H](O)[C@@H](C)[C@@H]4CC[C@@]32C)/C1=C(\CCC=C(C)C)C(=O)O
3. CC/C(=C(/CC)c1ccc(O)cc1)c1ccc(O)cc1
4. C=C[C@@H]1C2=CCOC(=O)C2=CO[C@H]1O[C@@H]1O[C@H](CO)[C@@H](O)[C@H](O)[C@H]1O [GENTIOPICROSIDE]

Reply:
[15, -2, 18, 11]

====

Tested on: JCV strain Mad1/SVEΔ
Test: microbe, parasite or virus in culture
Type: cell-based, JC polyomavirus (JCV)
Conditions: JC polyomavirus, Glial cell, read-out: % Inhibition (total #JCV+) @10 uM
Please respond with reported inhibition at 10 µM for every item in the list.

Solved cases (4 shown):
get_value(item= CC(=O)O[C@H]1C[C@@]2(C)[C@@H](C[C@@H](O)[C@H]3[C@@]4(C)CC[C@@H](O)[C@@H](C)[C@@H]4CC[C@@]32C)/C1=C(\CCC=C(C)C)C(=O)O , readout=inhibition at 10 µM) returns 39%

get_value(item= CCCCCCCCCCCCCCCC(=O)OC[C@@H](NC(=O)C(Cl)Cl)[C@H](O)c1ccc([N+](=O)[O-])cc1 [CHLORAMPHENICOL PALMITATE] , readout=inhibition at 10 µM) returns 20%

get_value(item= O=c1c2ccccc2oc2ccccc12 , readout=inhibition at 10 µM) returns 39%

get_value(item= C[C@H]1CC[C@]2(NC1)O[C@H]1C[C@H]3[C@@H]4CC[C@H]5C[C@@H](O[C@@H]6O[C@H](CO)[C@H](O[C@@H]7O[C@H](CO)[C@@H](O)[C@H](O[C@@H]8OC[C@@H](O)[C@H](O)[C@H]8O)[C@H]7O[C@@H]7O[C@H](CO)[C@@H](O)[C@H](O)[C@H]7O)[C@H](O)[C@H]6O)CC[C@]5(C)[C@H]4CC[C@]3(C)[C@H]1[C@@H]2C , readout=inhibition at 10 µM) returns 40%

We next turn to a different compound, shown below.
get_value(item= COc1ccc2cc(CCC(C)=O)ccc2c1 , readout=inhibition at 10 µM) returns 20%

====

Test system: SVG-A cells
Assay: Total cell number (DAPI+ events) / cytotoxicity in the JCV infectivity assay
Conditions: Homo sapiens, SVG-A, read-out: % Inhibition total Cell Number @10 uM
Please respond with reported inhibition at 10 µM for every item in the list.
Report as: number unit

Solved cases (5 shown):
get_value(item= CC(=O)OCC(=O)[C@@]12OC3(CCCC3)O[C@@H]1C[C@H]1[C@@H]3CCC4=CC(=O)C=C[C@]4(C)[C@@]3(F)[C@@H](O)C[C@@]12C [AMCINONIDE] , readout=inhibition at 10 µM) returns -11%

get_value(item= COc1ccc2cc(CCC(C)=O)ccc2c1 [NABUMETONE] , readout=inhibition at 10 µM) returns -2%

get_value(item= COc1cc(C)c2c(=O)c(-c3ccccc3)coc2c1 [METHOXYVONE] , readout=inhibition at 10 µM) returns 15%

get_value(item= OCCN(CCO)c1nc(N2CCCCC2)c2nc(N(CCO)CCO)nc(N3CCCCC3)c2n1 [DIPYRIDAMOLE] , readout=inhibition at 10 µM) returns 3%

get_value(item= CCC(=O)Nc1ccc(Cl)c(Cl)c1 [PROPANIL] , readout=inhibition at 10 µM) returns -12%

I'm hoping you can list inhibition at 10 µM for every molecule here, please.
1. O=c1oc2ccccc2c(O)c1Cc1c(O)c2ccccc2oc1=O [DICUMAROL]
2. O=c1c2ccccc2oc2ccccc12 [XANTHONE]
3. COc1cc([C@@H]2c3cc4c(cc3[C@H](O)[C@H]3COC(=O)[C@@H]23)OCO4)cc(OC)c1OC [PICROPODOPHYLLOTOXIN]
4. OC(c1cc(C(F)(F)F)nc2c(C(F)(F)F)cccc12)C1CCCCN1 (racemic) [MEFLOQUINE]
5. O=C(O)Cc1ccccc1Nc1c(Cl)cccc1Cl [DICLOFENAC SODIUM]
6. NCCOB(c1ccccc1)c1ccccc1 [AMINOETHOXYDIPHENYLBORANE]
7. CCCCOc1cc(CC2CNC(=O)N2)ccc1OC (stereo not shown)
8. CC1=CCc2c(cc3oc(C)cc(=O)c3c2O)OC1 [PTAEROXYLIN]

Reply:
["3%", "1%", "-1%", "5%", "18%", "3%", "12%", "11%"]
